# tested on: CYP2C9 (Homo sapiens)
# Construct: 0.1 mg/mL protein human liver microsomes (BD Gentest); tissue BD Gentest; host or cells: human liver microsomes
# Sequence (P11712 whole entry): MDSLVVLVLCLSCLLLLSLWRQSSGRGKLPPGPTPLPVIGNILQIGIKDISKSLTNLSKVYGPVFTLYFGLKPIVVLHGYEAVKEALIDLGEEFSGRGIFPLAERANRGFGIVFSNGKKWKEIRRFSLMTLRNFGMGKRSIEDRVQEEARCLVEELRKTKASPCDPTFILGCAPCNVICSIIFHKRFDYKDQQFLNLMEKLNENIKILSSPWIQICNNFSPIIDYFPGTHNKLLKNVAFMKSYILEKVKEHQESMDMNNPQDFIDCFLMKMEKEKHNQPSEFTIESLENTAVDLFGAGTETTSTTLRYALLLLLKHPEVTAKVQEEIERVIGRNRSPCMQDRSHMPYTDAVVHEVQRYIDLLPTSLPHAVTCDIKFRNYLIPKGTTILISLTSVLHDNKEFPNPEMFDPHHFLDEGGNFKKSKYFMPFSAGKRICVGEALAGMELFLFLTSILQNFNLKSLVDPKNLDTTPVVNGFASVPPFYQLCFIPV
# test summary: Cocktail assay for CYPs, diclofenac 4′-hydroxylation (CYP2C9), human liver microsomes
# Format: biochemical
# experimental context: 5 μM diclofenac, 0.1 mg/mL human liver microsomes, 10 min at 37° C.; read-out: CYP IC50 (nM) 2C9
measured parameter: IC50 (nM)

Past entries and their recorded results:
- molecule: "O=C(Oc1ccc(Cl)cc1)N1CCCC1c1ccccc1-c1cncn1CCc1ccc(F)cc1 (centres unmarked)"
  IC50 [nM]: 1900
- molecule: "O=C(NCc1ccc(S(=O)(=O)N2CCCC2c2cccc(-c3cncn3CCc3ccc(F)cc3)c2)s1)c1ccccc1 (single isomer, unassigned) [Compound 55a]"
  IC50 [nM]: 61.6

(1) CC(=O)Nc1ncc(S(=O)(=O)NCc2ccc(-c3cncn3CCc3ccc(F)cc3)cc2)s1
(2) O=S(=O)(c1ccc(NCC(O)C2CC2)nc1)N1CCCC1c1ccccc1-c1cncn1CCc1ccc(F)cc1 (single isomer, unassigned) [Compound 34a]
(3) CN(C)c1ccc(S(=O)(=O)N2CCCC2c2ccccc2-c2cncn2CCc2ccc(F)cc2)cn1 (single isomer, unassigned) [Compound 28b]
Endpoint returns the given molecules ordered by ascending IC50. When ranking, write the labels in the order the request describes. 1, 3, 2
(1: 49 nM, 3: 1150 nM, 2: 2620 nM)

(P) CC(C)OC(=O)N1CCCC1c1cccc(-c2cncn2CCc2ccc(F)cc2)c1 (centres unmarked)
(Q) O=S(=O)(c1ccc(N2CCOCC2)nc1)N1CCc2c(cccc2-c2cncn2CCc2ccc(F)cc2)C1
Compare the recorded IC50 of P and Q ; state which is larger. Mark your answer with the label of the selected entry. Q

(a) CC(=O)Nc1ncc(S(=O)(=O)NCc2ccc(-c3cncn3CCc3ccc(F)cc3)cn2)s1
(b) CN1CCN(c2ncc(S(=O)(=O)N3CCc4c(cccc4-c4cncn4CCc4ccc(F)cc4)C3)s2)CC1
// compare measured IC50 between a and b ; output the lower one Mark your answer with the label of the selected entry. b
(b: 1350 nM, a: 7470 nM)

(P) C[C@H](c1ccc(F)cc1)n1cncc1-c1cccc2c1CCN(S(=O)(=O)c1cnc(N3CCN4C[C@H](O)C[C@H]4C3)s1)C2
(Q) CN1CCN(c2ncc(S(=O)(=O)N3Cc4cccc(-c5cncn5CCc5ccc(F)cc5)c4C3)s2)CC1
(R) O=C(C1CCOCC1)N1CCCC1c1cccc(-c2cncn2CCc2ccc(F)cc2)c1 (single isomer, unassigned) [Compound 49a]
# sort list by recorded IC50, greatest to least When ranking, write the labels in the order the request describes. R, P, Q
(R: 9740 nM, P: 4950 nM, Q: 486 nM)
